# Test system: ACHN renal
# Assay overview: NCI-60 one-dose screen, 48 h
# Study conditions: 10 µM unless noted
About 83,000 compounds went through this panel and 20% of them were active in at least one assay; those are over-represented in the sample as a whole. Activity calls are given as the source filed them. Rule for the calls: active = growth percent below 10; inactive = the rest.
API: response.call in active, inactive

Prompt line: // return assay outcome for O=P(O)(Nc1ccccc1)Nc1ccccc1
Response line: inactive

Prompt line: Tell me the assay call for O=[P+](O)c1cccnc1 please.
Response line: inactive

Prompt line: Check the results log: what was the call for O=[N+]([O-])c1ccc2scc3c4ccccc4nc-3c2c1 ?
Response line: active

Prompt line: Per the records of this test, what outcome belongs to Cc1c(C)c(N)c(C)c(C)c1N ?
Response line: active

Prompt line: I would be grateful if you could indicate the recorded call for CCCC(C)SP(=S)(SC(C)CCC)SC(C)CCC (stereo not drawn) .
Response line: inactive

Prompt line: Hi team, can someone confirm the assay call for C[C@]12CC[C@H]3[C@@H](CC=C4c5nc(-c6ccc(Br)cc6)sc5CC[C@@]43C)[C@@H]1CC[C@@H]2O ?
Response line: inactive

Prompt line: What classification did CC1=CC(=O)CCC12CCOC2=O (stereo not drawn) end up with in this test?
Response line: inactive

Prompt line: Given N#CCC(=O)c1ccccc1 , state the outcome it received in this test.
Response line: inactive

Prompt line: # fetch the recorded call for O=Cc1cn(Cc2ccccc2)c2ccccc12 here
Response line: inactive

Prompt line: // outcome(item) with item = N[C@@H](CCC(=O)CCl)C(=O)O
Response line: inactive

Prompt line: // param item: O=C(Cc1ccccc1)NC(O)C(Cl)(Cl)Cl (stereo not drawn) ; yields the recorded call
Response line: inactive

Prompt line: Short answer needed: outcome of this test for CCC(=O)C(CC(C)[N+](C)(C)C)(c1ccccc1)c1ccccc1 (stereo not drawn) ?
Response line: inactive

Prompt line: Answer briefly: the call reported for CC12CCC3C(CCC4CC(O)CCC43C)C1CCC2=O (stereo not drawn) in this assay.
Response line: inactive

Prompt line: Returns: the outcome recorded for CCC1(CCSC#N)C(=O)NC(=O)NC1=O in this assay.
Response line: inactive

Prompt line: // return assay outcome for NC1CN2CCC1CC2 (stereo not drawn)
Response line: inactive

Prompt line: // param item: CC[C@H](C)[C@H](NC(=O)[C@H]1CCCCN1C)C(=O)N(C)[C@H](CCc1nc(C(=O)N[C@@H](Cc2ccccc2)C[C@H](C)C(=O)O)cs1)C(C)C ; yields the recorded call
Response line: inactive

Prompt line: # outcome recorded in this test, key = NC(=O)Oc1cc(OC(N)=O)cc(N(CCCl)CCCl)c1
Response line: inactive

Prompt line: Test call, this molecule: O=S(=O)(c1ccc(O)cc1)c1ccccc1O
Response line: inactive
